Where do these numbers come from? They come from patent US20240026017A1.

Molecular target: T1, human CC chemokine receptor 1 (human CCR1) (human, UniProt P32246 1-355)
T1 construct: endogenous on THP-1 cells in the migration assays; also called hCCR1; CHO-S-hCCR1 (expressing cells)
T1 sequence: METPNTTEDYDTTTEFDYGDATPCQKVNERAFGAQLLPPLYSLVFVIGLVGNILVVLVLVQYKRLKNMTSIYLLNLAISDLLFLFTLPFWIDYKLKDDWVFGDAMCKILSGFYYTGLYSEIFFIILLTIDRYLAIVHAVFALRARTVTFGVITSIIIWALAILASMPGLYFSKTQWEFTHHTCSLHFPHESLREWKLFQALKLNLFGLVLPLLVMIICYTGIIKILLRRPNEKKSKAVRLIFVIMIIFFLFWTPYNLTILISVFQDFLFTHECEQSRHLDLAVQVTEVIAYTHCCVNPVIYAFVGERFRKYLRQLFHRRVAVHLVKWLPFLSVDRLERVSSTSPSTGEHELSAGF
Experiment: flow cytometry on CHO-S-hCCR1 cells; bound = fluorescence 10 times or more that of isotype control hzDNP1
Protocol: The antigen affinity of the chKM5908′ antibody, which is a VL-substituted chimeric antibody, was measured by flow cytometry using the CHO-S-hCCR1 cells produced in Example 2. […] After washing the cells with SM, the cells were resuspended in 50 μL of SM, and the fluorescence intensity was measured by the flow cytometry (FACS Canto II, BD Biosciences). […]
Reported property: binding result

* hzmAb5-06 LV4HV17 antibody (antibody, V domains shown, humanized) VH: QVQLQQSGPGLVKPSQTLSITCTVSGFSLNNYGVHWVRQPPGKGLEWLGVIWSAGTTVYNAAAISRLTISKDDSKSQVSFKMSSLTAADTAIYYCAKDGSRYYTAMDYWGQGTLVTVSS VL: DIVMTQSPLSLPVTLGEPASISCRSSQSLVHRNGITFFHWYLQKPGQSPKLLIYKISNRFSGVPDRFSGSGSGTDFTLKISRVEAEDVGVYFCSQGTHVPPTFGQGTKLEIK | binds
* hzKM5907 LV1bHV7 antibody (antibody, V domains shown, humanized; also called hzmAb5907 LV1bHV7) VH: EVQVLESGGGLVQPGGSLRLSCAASGFTFSRYGMSWVRQAPGKRLEWVASISATFTYTYYTDNVKGRFTISRDNSKNTLYLQMNSLRAEDTGMYYCTRQDNYAWFDSWGQGTLVTVSS VL: DIVMTQTPLSLPVTSGEPASISCRSSQSIVHSNGNTFLEWYLQKPGQSPKLLIYKVSSRFSGVPDRFSGSGSGTDFTLKISRVEAEDVGVYYCFQGSHIPWTFGGGTKVEIK | binds
